Target: T1, cynomolgus monkey KLK5 (cynomolgus monkey, UniProt Q9Y337 67-293 (human entry))
T1 construct: also called cyno KLK5
T1 chain: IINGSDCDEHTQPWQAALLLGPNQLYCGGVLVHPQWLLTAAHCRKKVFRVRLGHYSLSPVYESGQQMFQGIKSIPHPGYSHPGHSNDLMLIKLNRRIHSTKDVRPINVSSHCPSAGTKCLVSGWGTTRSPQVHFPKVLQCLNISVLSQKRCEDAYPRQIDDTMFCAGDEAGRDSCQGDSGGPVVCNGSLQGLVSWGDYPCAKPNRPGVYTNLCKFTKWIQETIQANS
Assay: SPR, one-armed monovalent antibody
Field: koff. Provide a value for each of the binders that follow.
In your response, the unit should come after the numeric value.

The examples below pair each entry with its known result.
OA.hu.9H5.H14L4.G54A.G98Q.H89V (antibody, V domains shown, One-armed (OA) monovalent anti-KLK5 antibody with a human IgG1 Fc, with Q38E/Q39K; constant regions and dummy Fc chain not specified) VH: EVQLVESGGGLIQPGGSLRLSCAASGFSLSSYGVSWVRKAPGKGLEYVGFIGSAGFAYYASWAKSRFTISRDNSKNTLYLQMNSLRAEDTAVYYCARDDVQGGKSLDIWGQGTLVTVSS VL: DIQMTQSPSSLSASVGDRVTITCQASQSISSYLSWYQEKPGKAPKLLIYSASTLASGVPSRFSGSGSGTDFTLTISSLQPEDFATYYCVQDYTSSNVDNTFGGGTKVEIK :: 6.52e-05 s⁻¹
OA.hu.9H5.H14L4 (antibody, V domains shown, One-armed (OA) monovalent anti-KLK5 antibody with a human IgG1 Fc, with Q38E/Q39K; constant regions and dummy Fc chain not specified) VH: EVQLVESGGGLIQPGGSLRLSCAASGFSLSSYGVSWVRKAPGKGLEYVGFIGSGGFAYYASWAKSRFTISRDNSKNTLYLQMNSLRAEDTAVYYCARDDVGGGKSLDIWGQGTLVTVSS VL: DIQMTQSPSSLSASVGDRVTITCQASQSISSYLSWYQEKPGKAPKLLIYSASTLASGVPSRFSGSGSGTDFTLTISSLQPEDFATYYCHQDYTSSNVDNTFGGGTKVEIK :: 0.000697 s⁻¹
OA.hu.9H5.H14L4.G54A.G98Q.S95Y (antibody, V domains shown, One-armed (OA) monovalent anti-KLK5 antibody with a human IgG1 Fc, with Q38E/Q39K; constant regions and dummy Fc chain not specified) VH: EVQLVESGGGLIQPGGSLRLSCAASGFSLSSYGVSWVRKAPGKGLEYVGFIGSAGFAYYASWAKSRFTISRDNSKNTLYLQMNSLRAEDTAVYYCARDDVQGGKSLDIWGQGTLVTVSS VL: DIQMTQSPSSLSASVGDRVTITCQASQSISSYLSWYQEKPGKAPKLLIYSASTLASGVPSRFSGSGSGTDFTLTISSLQPEDFATYYCHQDYTSYNVDNTFGGGTKVEIK :: 9.18e-05 s⁻¹

Item under review: OA.hu.9H5.H14L4.G54A.H89V (antibody, V domains shown, One-armed (OA) monovalent anti-KLK5 antibody with a human IgG1 Fc, with Q38E/Q39K; constant regions and dummy Fc chain not specified) VH: EVQLVESGGGLIQPGGSLRLSCAASGFSLSSYGVSWVRKAPGKGLEYVGFIGSAGFAYYASWAKSRFTISRDNSKNTLYLQMNSLRAEDTAVYYCARDDVGGGKSLDIWGQGTLVTVSS VL: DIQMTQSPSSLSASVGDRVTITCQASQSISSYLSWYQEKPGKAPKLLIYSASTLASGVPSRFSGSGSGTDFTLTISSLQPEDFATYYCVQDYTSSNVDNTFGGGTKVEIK . Reported koff? 0.00011 s⁻¹
